# systemName: UniProt:P21802
# Sequence (P21802 22-821): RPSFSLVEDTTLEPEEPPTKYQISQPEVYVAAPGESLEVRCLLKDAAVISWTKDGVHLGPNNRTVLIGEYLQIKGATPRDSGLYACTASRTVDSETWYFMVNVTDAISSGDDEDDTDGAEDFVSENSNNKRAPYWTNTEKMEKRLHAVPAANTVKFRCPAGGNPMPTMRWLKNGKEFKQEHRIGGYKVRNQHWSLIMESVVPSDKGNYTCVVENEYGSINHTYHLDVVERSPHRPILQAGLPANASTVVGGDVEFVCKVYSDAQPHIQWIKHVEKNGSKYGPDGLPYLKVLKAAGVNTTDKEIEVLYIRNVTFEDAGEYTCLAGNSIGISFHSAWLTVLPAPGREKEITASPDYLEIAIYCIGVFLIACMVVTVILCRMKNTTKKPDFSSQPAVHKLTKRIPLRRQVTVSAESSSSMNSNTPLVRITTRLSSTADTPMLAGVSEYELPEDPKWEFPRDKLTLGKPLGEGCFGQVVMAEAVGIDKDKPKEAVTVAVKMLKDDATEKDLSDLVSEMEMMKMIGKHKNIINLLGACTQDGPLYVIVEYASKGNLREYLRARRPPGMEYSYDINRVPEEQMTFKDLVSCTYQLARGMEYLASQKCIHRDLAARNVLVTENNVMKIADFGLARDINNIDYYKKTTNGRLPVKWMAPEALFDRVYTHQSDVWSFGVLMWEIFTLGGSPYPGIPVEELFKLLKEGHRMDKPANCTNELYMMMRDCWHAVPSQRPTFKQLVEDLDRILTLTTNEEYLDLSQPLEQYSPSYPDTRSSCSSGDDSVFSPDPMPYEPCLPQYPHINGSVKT
# assayNotes: FGFR Enzymatic Assay (FRET peptide phosphorylation), FGFR2
# recordedConditions: read-out: FGFR2 IC50; pre-incubated for 4 hours
endpointLabel: IC50

molecule `C=CC(=O)Nc1cn(CC2CCOCC2)nc1-c1cc2c(cn1)CN(c1c(F)c(OC)cc(OC)c1F)C(=O)C21CC1` , IC50 observed: > 200 nM

molecule `C=CC(=O)Nc1cn(CCOC)nc1-c1cc2c(cn1)CN(c1c(F)c(OC)cc(OC)c1F)C(=O)C21CC1` , IC50 observed: > 200 nM

molecule `C=CC(=O)Nc1cnc(C)c(-c2cc3c(cn2)CN(c2c(F)c(OC)cc(OC)c2F)C(=O)C32CC2)c1` , IC50 observed: > 200 nM

molecule C=CC(=O)N1CCCC(c2cc3c(cn2)CN(c2c(F)c(OC)cc(OC)c2F)C(=O)C32CC2)C1 (stereo not shown) , IC50 observed: > 200 nM

###

Would you kindly list FGFR3/FGFR4 IC50 ratio for each of these molecules?
# systemName: FGFR4 (Homo sapiens (Human), UniProt P22455)
# Sequence (P22455 22-802): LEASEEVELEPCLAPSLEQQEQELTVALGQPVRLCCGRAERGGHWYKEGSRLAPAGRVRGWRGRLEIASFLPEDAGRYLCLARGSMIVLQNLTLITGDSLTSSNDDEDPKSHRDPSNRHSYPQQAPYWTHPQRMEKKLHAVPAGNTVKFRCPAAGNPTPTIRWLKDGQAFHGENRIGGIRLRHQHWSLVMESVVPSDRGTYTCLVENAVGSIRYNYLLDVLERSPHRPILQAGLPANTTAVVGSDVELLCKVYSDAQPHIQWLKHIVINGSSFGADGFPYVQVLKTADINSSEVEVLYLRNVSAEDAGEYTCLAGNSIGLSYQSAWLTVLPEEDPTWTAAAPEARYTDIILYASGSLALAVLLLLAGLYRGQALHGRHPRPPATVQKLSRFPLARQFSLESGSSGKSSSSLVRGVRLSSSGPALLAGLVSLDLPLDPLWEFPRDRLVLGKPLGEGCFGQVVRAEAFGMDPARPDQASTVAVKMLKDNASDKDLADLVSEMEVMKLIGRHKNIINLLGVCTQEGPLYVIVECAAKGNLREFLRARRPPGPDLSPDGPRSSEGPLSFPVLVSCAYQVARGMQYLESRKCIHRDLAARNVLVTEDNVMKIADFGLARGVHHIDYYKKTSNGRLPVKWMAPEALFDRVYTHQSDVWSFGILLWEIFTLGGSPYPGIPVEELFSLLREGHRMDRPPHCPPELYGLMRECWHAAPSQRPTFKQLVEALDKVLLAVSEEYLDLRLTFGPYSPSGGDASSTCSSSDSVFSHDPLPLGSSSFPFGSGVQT
# assayNotes: FGFR Enzymatic Assay (FRET peptide phosphorylation), FGFR4
# recordedConditions: IC50 ratio showing FGFR4 selectivity; pre-incubated for 5 to 10 minutes

molecule C=CC(=O)Nc1cc(-c2cc3c(cn2)CN(c2c(F)c(OC)cc(OC)c2F)C(=O)C32CC2)c(C)cc1F [Example 6] , FGFR3/FGFR4 IC50 ratio observed: >100

molecule C=CC(=O)Nc1cc(-c2cc3c(cn2)CN(c2c(F)c(OC)cc(OC)c2F)C(=O)C32CC2)ccc1CN1CCOCC1 [Example 12] , FGFR3/FGFR4 IC50 ratio observed: >1

molecule C=CC(=O)N1CCCC(c2cc3c(cn2)CN(c2c(F)c(OC)cc(OC)c2F)C(=O)C32CC2)C1 (stereo not shown) [Example 8] , FGFR3/FGFR4 IC50 ratio observed: >1

molecule C=CC(=O)Nc1cc(-c2cc3c(cn2)CN(c2c(F)c(OC)cc(OC)c2F)C(=O)C32CC2)cc(N2CCOCC2)c1 [Example 10] , FGFR3/FGFR4 IC50 ratio observed: >100

###

# systemName: FGFR3 (Homo sapiens (Human), UniProt P22607)
# Sequence (P22607 23-806): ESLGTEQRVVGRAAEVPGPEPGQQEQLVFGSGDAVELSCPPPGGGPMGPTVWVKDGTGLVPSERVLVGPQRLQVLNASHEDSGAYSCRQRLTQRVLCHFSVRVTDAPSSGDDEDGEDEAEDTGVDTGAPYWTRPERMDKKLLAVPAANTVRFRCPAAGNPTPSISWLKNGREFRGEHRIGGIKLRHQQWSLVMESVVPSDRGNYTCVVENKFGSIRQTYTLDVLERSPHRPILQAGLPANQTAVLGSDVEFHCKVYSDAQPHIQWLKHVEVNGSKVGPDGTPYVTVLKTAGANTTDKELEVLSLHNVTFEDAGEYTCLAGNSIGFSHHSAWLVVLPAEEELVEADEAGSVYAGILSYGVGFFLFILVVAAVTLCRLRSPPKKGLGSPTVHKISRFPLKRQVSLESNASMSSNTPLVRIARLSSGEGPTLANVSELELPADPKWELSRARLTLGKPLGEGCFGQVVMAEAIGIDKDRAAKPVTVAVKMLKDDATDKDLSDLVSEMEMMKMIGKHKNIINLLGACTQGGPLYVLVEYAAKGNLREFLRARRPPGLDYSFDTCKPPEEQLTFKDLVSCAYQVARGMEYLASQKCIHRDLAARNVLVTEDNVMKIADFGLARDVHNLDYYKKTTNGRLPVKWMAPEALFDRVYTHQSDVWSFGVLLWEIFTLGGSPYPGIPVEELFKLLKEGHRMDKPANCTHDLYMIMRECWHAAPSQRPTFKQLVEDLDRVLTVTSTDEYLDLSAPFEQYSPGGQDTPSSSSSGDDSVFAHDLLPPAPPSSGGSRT
# assayNotes: FGFR Enzymatic Assay (FRET peptide phosphorylation), FGFR3
# recordedConditions: FGFR3 IC50 (nM), pre-incubated for 5 to 10 minutes
endpointLabel: IC50

compound `C=CC(=O)Nc1cc(-c2cc3c(cn2)CN(c2c(F)c(OC)cc(OC)c2F)C(=O)C32CC2)ccn1` , IC50 observed: 10 to 30 nM

compound `C=CC(=O)Nc1cc(-c2cc3c(cn2)CN(c2c(F)c(OC)cc(OC)c2F)C(=O)C32CC2)ccc1CN1CCOCC1` , IC50 observed: 30 to 200 nM

compound `C=CC(=O)Nc1cc(-c2cc3c(cn2)CN(c2c(F)c(OC)cc(OC)c2F)C(=O)C32CC2)ccc1CO` , IC50 observed: 30 to 200 nM

compound `C=CC(=O)Nc1cccc(-c2cc3c(cn2)CN(c2c(F)c(OC)cc(OC)c2F)C(=O)C32CC2)c1` , IC50 observed: 10 to 30 nM
